Assay: Analgetic effect (acetic acid writhing syndrome)
Format: in vivo, dd-strain male mice
Details: Mus musculus, po; orally, mice, acetic acid writhing
assay readout: ED50 (mg/kg)
Just the number in mg/kg, nothing appended.

Past entries and their recorded results:
molecule	measurement unit	ED50
O=C(O)c1ccccc1Nc1cccc(C(F)(F)F)c1 [flufenamic acid, reference compound]	mg/kg	180
CC(C)Cn1c(=O)c2cccnc2n(-c2cccc([N+](=O)[O-])c2)c1=O	mg/kg	3.1
CC(C)n1c(=O)c2cccnc2n(-c2cccc([N+](=O)[O-])c2)c1=O	mg/kg	2.15
O=c1c2cccnc2n(-c2cccc([N+](=O)[O-])c2)c(=O)n1Cc1ccccc1	mg/kg	1.7
CCCn1c(=O)c2cccnc2n(-c2cccc(Br)c2)c1=O [--CH2 CH2 CH3, reference compound]	mg/kg	20
CCOC(=O)Cn1c(=O)c2cccnc2n(-c2cccc([N+](=O)[O-])c2)c1=O	mg/kg	45
O=c1c2cccnc2n(-c2cccc([N+](=O)[O-])c2)c(=O)n1CC1CC1	mg/kg	0.12
O=c1c2cccnc2n(-c2cccc([N+](=O)[O-])c2)c(=O)n1CCO	mg/kg	0.42
CCn1c(=O)c2cccnc2n(-c2cccc(C(F)(F)F)c2)c1=O [--C2 H5, reference compound]	mg/kg	10
C=CCn1c(=O)c2cccnc2n(-c2cccc([N+](=O)[O-])c2)c1=O	mg/kg	2.6

Challenge: Look up ED50 for this molecule: O=C(O)Cn1c(=O)c2cccnc2n(-c2cccc([N+](=O)[O-])c2)c1=O
Response given: 33

Challenge: Could you tell me which ED50 is on file for Cn1c(=O)c2cccnc2n(-c2cccc(Cl)c2)c1=O [--CH3, reference compound] ?
Response given: 7.1
